Test system: IGROV1 ovarian
Test: NCI-60 one-dose screen, 48 h (100 = growth as untreated, 0 = no growth, -100 = all killed)
Conditions: 10 µM unless noted
Method: Growth inhibition of the IGROV1 human tumor cell line is measured as a screen for anti-cancer activity. Cells are grown in 96 well plates and exposed to the test compound for 48 hours. Compounds are tested at a single concentration, which is 10^-5 M for most compounds. The reported endpoint is percent growth (GI% or GIPRCNT), where numbers from 0 - 100% represent growth inhibition, and numbers from -100% - 0 represent cell death. For example, a value of 40 represents 60% growth inhibition. […]
Compounds without any hit were thinned out: in the full panel of roughly 83,000, 20% have a hit.
Please use rule met for growth under 30% and rule not met for everything else, ties included.

Asked: # strict comparison: is reported growth < 30%? input = `CN1CCN(Cc2ccc(NC(=O)c3cncc(C#Cc4cnc5ccc(OCC6(C)COC6)nn45)c3)cc2C(F)(F)F)CC1`
Given back: rule met

Asked: # strict comparison: is reported growth < 30%? input = `Cc1ccc(-c2nnc(SCc3ccc(O)c4ncccc34)o2)cc1`
Given back: rule met

Asked: # strict comparison: is reported growth < 30%? input = `COc1ccc(C(=O)Nc2ncc(Cc3ccccc3Cl)s2)cc1`
Given back: rule met

Asked: # strict comparison: is reported growth < 30%? input = `CS(=O)(=O)c1ccc(-n2cc(/C=N/O)c(-c3ccccc3)n2)cc1`
Given back: rule met

Asked: # strict comparison: is reported growth < 30%? input = CCNC(=O)N1CCc2cc(OC)c(OCCc3ccc(OC)nc3)cc2C1c1ccc(C)cc1C (centres undefined)
Given back: rule met

***
Asked: # strict comparison: is reported growth < 30%? input = `Oc1[nH]c2ccccc2c1Nn1c(N=N/C=c2/ccc3c(c2)C=NN=3)n[nH]c1=S`
Given back: rule not met

Asked: # strict comparison: is reported growth < 30%? input = `N#Cc1cccc(CN2CCC3=C(C2)C(=O)N(Cc2ccc(Cl)cc2)C2=NCCN23)c1`
Given back: rule not met

Asked: # strict comparison: is reported growth < 30%? input = `Nc1cc(-c2c[nH]c3ccc(Br)cc23)nc2cc(-c3c[nH]c4ccc(Br)cc34)nn12`
Given back: rule met

Asked: # strict comparison: is reported growth < 30%? input = `NC(=O)c1cccc(C#CCNC[C@H]2C[C@@H](n3ccc4c(Cl)ncnc43)[C@H](O)[C@@H]2O)c1`
Given back: rule not met

Asked: # strict comparison: is reported growth < 30%? input = `COc1cc2oc(-c3cccc(C(=O)N[C@@H](CC(C)C)C(=O)OC(C)(C)C)c3)cc(=O)c2c(OC)c1OC`
Given back: rule not met

Asked: # strict comparison: is reported growth < 30%? input = `CC1=NC2=NC(=O)/C(=C3/N=C(C)C=C(c4ccccc4)N3N)NN2C(c2ccccc2)=C1`
Given back: rule not met

Asked: # strict comparison: is reported growth < 30%? input = `CC(C)(O)c1cncc(-c2ccc3ncnc(NCc4ccccc4)c3c2)c1`
Given back: rule not met

###

tested on: HCC-2998 colon; test: NCI-60 one-dose screen, 48 h (100 = growth as untreated, 0 = no growth, -100 = all killed); details: 10 µM unless noted
This is part of a sample that, as a whole, favours compounds with a hit. Of some 83,000 tested, about 20% had one in any assay.
As shown below, each of these compounds has a reported growth value.
Only the number, expressed in %, is required.

The cases that follow already have their growth on record.
Asked: Give the measured growth for `CCCCCc1ccc(S(=O)(=O)Nc2cc(-c3csc(NC(=O)CN4CCN(C)CC4)n3)ccc2OC)cc1`
Given back: -50.2

Asked: Give the measured growth for `Cc1ccc(C2=Nn3c(nnc3-c3ccccc3)SC2)cc1`
Given back: 39.9

Asked: Give the measured growth for `C=CCn1c(SCC(=O)Nc2ccc(C(=O)/C=C/c3cc(OC)c(OC)c(OC)c3)cc2)nnc1-c1c[nH]c2ccccc12`
Given back: -28

Asked: Give the measured growth for `Cc1noc(C)c1CSc1nc2ccccc2n1-c1ccccc1`
Given back: 112

***
Asked: Give the measured growth for `NS(=O)(=O)c1ccc(Nc2nc(SCc3ccccc3)nc3ccccc23)cc1`
Given back: 83

Asked: Give the measured growth for `O=C(CN1CCN(c2cc(=O)n(-c3ccccc3)c3ccccc23)CC1)Nc1nc(-c2ccccc2)cs1`
Given back: 81.8
